Test system: primary human T cells
measurement notes: IL12 (p70) in lentivirus transduced primary human T cells, Bazedoxifene dose response (MSD assay)
Type: cell-based
condition context: T-cell; BZD dose response in primary human T cells expressing OT-001736; read-out: EC50 of IL12 induction
measurement label: EC50 (nM)

>>> value("Cc1c(-c2ccc(O)cc2)n(Cc2ccc(OCCN3CCCCCC3)cc2)c2ccc(O)cc12")
200

---

measurement notes: Pharmacokinetics of Bazedoxifene in CD-1 mice (plasma, LC-MS-MS)
Format: in vivo
condition context: CD-1, mouse, plasma, oral, 10 mg/kg, 10 mg/kg single dose; 2 hours post dose; free and bound combined; individual animals; read-out: Plasma Bazedoxifene Concentrations
measurement label: concentration at 2 h (nM)

>>> value("Cc1c(-c2ccc(O)cc2)n(Cc2ccc(OCCN3CCCCCC3)cc2)c2ccc(O)cc12 [Bazedoxifene]")
77

---

measurement notes: Pharmacokinetics of Bazedoxifene in CD-1 mice (plasma, LC-MS-MS)
Assay type: in vivo
condition context: CD-1, mouse, plasma, oral, 10 mg/kg, 10 mg/kg single dose; 7 hours post dose; free and bound combined; individual animals; read-out: Plasma Bazedoxifene Concentrations
measurement label: concentration at 7 h (nM)

>>> value("Cc1c(-c2ccc(O)cc2)n(Cc2ccc(OCCN3CCCCCC3)cc2)c2ccc(O)cc12")
34

---

measurement notes: Pharmacokinetics of Bazedoxifene in CD-1 mice (plasma, LC-MS-MS)
Format: in vivo
condition context: CD-1, mouse, plasma, oral, 10 mg/kg, 10 mg/kg single dose; 0.5 hours post dose; free and bound combined; individual animals; read-out: Plasma Bazedoxifene Concentrations
measurement label: concentration at 0.5 h (nM)

>>> value("Cc1c(-c2ccc(O)cc2)n(Cc2ccc(OCCN3CCCCCC3)cc2)c2ccc(O)cc12")
71

---

measurement notes: Pharmacokinetics of Bazedoxifene in CD-1 mice (plasma, LC-MS-MS)
Format: in vivo
condition context: CD-1, mouse, plasma, oral, 200 mg/kg, 200 mg/kg single dose; 0.25 hours post dose; free and bound combined; individual animals; read-out: Plasma Bazedoxifene Concentrations
measurement label: concentration at 0.25 h (nM)

>>> value("Cc1c(-c2ccc(O)cc2)n(Cc2ccc(OCCN3CCCCCC3)cc2)c2ccc(O)cc12 [Bazedoxifene]")
1060

---

measurement notes: Pharmacokinetics of Bazedoxifene in CD-1 mice (plasma, LC-MS-MS)
Format: in vivo
condition context: CD-1, mouse, plasma, oral, 100 mg/kg, 100 mg/kg single dose; 4 hours post dose; free and bound combined; individual animals; read-out: Plasma Bazedoxifene Concentrations
measurement label: concentration at 4 h

>>> value("Cc1c(-c2ccc(O)cc2)n(Cc2ccc(OCCN3CCCCCC3)cc2)c2ccc(O)cc12")
"1.38 µM"

---

measurement notes: Pharmacokinetics of Bazedoxifene in CD-1 mice (plasma, LC-MS-MS)
Format: in vivo
condition context: CD-1, mouse, plasma, oral, 100 mg/kg, 100 mg/kg single dose; 1 hours post dose; free and bound combined; individual animals; read-out: Plasma Bazedoxifene Concentrations
measurement label: concentration at 1 h (µM)

>>> value("Cc1c(-c2ccc(O)cc2)n(Cc2ccc(OCCN3CCCCCC3)cc2)c2ccc(O)cc12 [Bazedoxifene]")
3.59
